The reader will find reported activation values listed item by item below.
# targetOrSystem: G-protein coupled receptor 151 (Homo sapiens) (UniProt Q8TDV0)
# Sequence (Q8TDV0 whole entry, looked up): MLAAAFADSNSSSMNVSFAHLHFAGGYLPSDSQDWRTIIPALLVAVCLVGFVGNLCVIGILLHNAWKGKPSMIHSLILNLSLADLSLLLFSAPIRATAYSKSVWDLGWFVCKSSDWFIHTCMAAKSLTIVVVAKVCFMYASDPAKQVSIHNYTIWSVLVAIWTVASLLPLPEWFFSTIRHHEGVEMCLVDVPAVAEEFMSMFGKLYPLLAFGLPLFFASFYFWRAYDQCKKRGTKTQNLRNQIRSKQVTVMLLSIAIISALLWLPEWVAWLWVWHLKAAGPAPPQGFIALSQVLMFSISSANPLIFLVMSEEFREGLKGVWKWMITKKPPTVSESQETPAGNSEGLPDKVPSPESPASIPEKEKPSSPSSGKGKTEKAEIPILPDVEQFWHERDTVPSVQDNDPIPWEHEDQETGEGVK
# protocolDescription: activators of human GPR151, primary screen, cell-based, PathHunter beta-arrestin, luminescence (AID 1508602);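 note: 0% = median of compound wells and 100% = cells with positive control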
# setupConditions: PathHunter beta-arrestin GPR151 cells, at 11.2 µM, hits give high values
About 6,800 (1%) of roughly 650,000 compounds were called active. This excerpt belongs to a sample that is enriched for actives.
experimentalReadout: activation

molecule | targetOrSystem | experimentalReadout | measuredResult
O=C(O)CC(NS(=O)(=O)Cc1ccccc1)c1ccc(F)cc1 (stereo unspecified) | G-protein coupled receptor 151 (Homo sapiens) (UniProt Q8TDV0) | activation | 1.1% (inactive)
CCc1nc2sc3c(c2c2nnc(SCC(=O)NCc4ccco4)n12)CCCC3 | G-protein coupled receptor 151 (Homo sapiens) (UniProt Q8TDV0) | activation | -0.144% (inactive)
CC(=O)NC(CC(=O)O)c1ccc(F)cc1 (stereo unspecified) | G-protein coupled receptor 151 (Homo sapiens) (UniProt Q8TDV0) | activation | 6.23% (active)
COc1cc(-c2ncnn2-c2ccc(Cl)cc2)ccc1OCc1ccccc1 | G-protein coupled receptor 151 (Homo sapiens) (UniProt Q8TDV0) | activation | -3.78% (inactive)
CCCS(=O)(=O)N1CCN=C1SCc1cccc(Cl)c1 | G-protein coupled receptor 151 (Homo sapiens) (UniProt Q8TDV0) | activation | -1.49% (inactive)
O=C(O)CC(NC(=O)c1ccccc1)c1ccc(F)cc1 (stereo unspecified) | G-protein coupled receptor 151 (Homo sapiens) (UniProt Q8TDV0) | activation | -0.457% (inactive)
